pIC50: −log10 of the molar value.
// merged dataset of pIC50 values, system = Vascular endothelial growth factor receptor 2 (Homo sapiens), multiple refs
observed-property: pIC50

{"molecule": "CS(=O)(=O)Nc1cc(NC(=O)Nc2ccc(Oc3ccnc(NC(=O)C4CC4)c3)c(F)c2)cc(C(F)(F)F)c1", "obs-value": 8.26}
{"molecule": "CS(=O)(=O)c1ccc(CN2CCN(c3ccc(-c4cc(-c5cnn(C(F)F)c5)cn5ncc(C#N)c45)cn3)CC2)cc1", "obs-value": 7.74}
{"molecule": "CNC(=O)c1coc2cc(Oc3ccnc4cc(-c5cn(C)cn5)ccc34)ccc12", "obs-value": "> 7.30"}
{"molecule": "Cc1ccc(F)cc1C(=O)N[C@H]1[C@@H]2CN(c3ccc(-c4cc(-c5cnn(C)c5)cn5ncc(C#N)c45)cn3)C[C@@H]21", "obs-value": "≥ 8.00"}
{"molecule": "Cc1cc(C(F)(F)F)nc(/C(C(N)=O)=C2/Nc3ccccc3S2)n1", "obs-value": 7.22}
{"molecule": "COc1cccc(-c2cnc(Nc3ccc(CN4CCN(C)CC4)cc3)o2)c1", "obs-value": "> 6.00"}
{"molecule": "COC(=O)c1cccc(-c2cc3nccc(-c4ccccc4)c3o2)c1", "obs-value": "4.30 to 5.52"}
{"molecule": "CN1CCN(c2ccc(Nc3nc4c(-c5cnn(C)c5)nccn4n3)cc2)CC1", "obs-value": "5.52 to 6.52"}
{"molecule": "CN1CCC(Oc2cc(NC(=O)Nc3ccc(Oc4ccnc(NC(=O)C5CC5)c4)c(F)c3)cc(C(F)(F)F)c2)C1 (stereo not shown)", "obs-value": 8.09}
{"molecule": "COCCOc1cc2nccc(Oc3ccc(NC(=O)Nc4ccc(Cl)c(C(F)(F)F)c4)cc3F)c2c2c1OCCO2", "obs-value": "6.30 to 7.30"}
{"molecule": "Cn1cc(-c2cc(Oc3cccc(NC(=O)c4ccc5[nH]ccc5c4)c3)ccn2)cn1", "obs-value": "≥ 5.00"}
{"molecule": "COc1cc2nccc(Oc3ccc(N4CC(=O)NC4=S)c(Cl)c3)c2cc1C(N)=O", "obs-value": "> 7.30"}
{"molecule": "Cc1ccc(F)cc1C(=O)c1c[nH]c2ncc(-c3cccc(NS(C)(=O)=O)c3)cc12", "obs-value": "≥ 5.00"}
{"molecule": "O=C(c1ccc(O)cc1Cl)c1c[nH]c2ncc(-c3cccs3)cc12", "obs-value": "≥ 5.00"}
{"molecule": "C=CC(=O)Nc1cc2c(Nc3cc(Cl)c(Cl)cc3Cl)ncnc2cc1OCCNC(C)=O", "obs-value": 6.10}
{"molecule": "CCCCNC(=O)Nc1ccc(F)c(C(=O)c2c[nH]c3ncc(-c4cccnc4)cc23)c1F", "obs-value": "≥ 5.00"}
{"molecule": "O=C(c1cc(O)ccc1F)c1c[nH]c2ncc(Br)cc12", "obs-value": "≥ 5.00"}
{"molecule": "CC(F)(F)c1ccnc(NC(=O)Nc2ccc(Oc3ccnc(NC(=O)C4CC4)c3)cc2F)c1", "obs-value": 7.97}
{"molecule": "Cn1cc(-c2nccc(Oc3cccc(NC(=O)Nc4cc(C(F)(F)F)cc(C(F)(F)F)c4)c3)n2)cn1", "obs-value": "≥ 5.00"}
{"molecule": "COc1cc2nccc(Oc3ccc(NC(=O)c4c5n(cc(C6=CCCCC6)c4=O)CCOC5)cc3)c2nc1OC", "obs-value": "< 6.52"}
{"molecule": "C=CC(=O)Nc1cc2c(Nc3cc(Cl)c(Cl)cc3F)ncnc2cc1OCCNC(=O)CN(C)C", "obs-value": 6.12}
{"molecule": "CCN(CC)CCNC(=O)c1c(C)[nH]c2c1CCC/C2=C1/C(=O)Nc2ccc(Cl)cc21", "obs-value": 8.28}
{"molecule": "O=C(Nc1ccc(Oc2ccnc(NC(=O)C3CC3)c2)nc1)Nc1cc(N2CCS(=O)(=O)CC2)cc(C(F)(F)F)c1", "obs-value": 8.00}
{"molecule": "O=C(Nc1cc(F)cc(C(F)(F)F)c1)Nc1ccc(Oc2ccnc(NC(=O)C3CC3)c2)cc1F", "obs-value": 7.83}
{"molecule": "Cc1c(O)cccc1C(=O)c1c[nH]c2ncc(-c3ccccc3)cc12", "obs-value": "≥ 5.00"}
{"molecule": "C=CC(=O)Nc1cc2c(Nc3ccc(Br)cc3F)ncnc2cc1OCC1CCN(C(=O)NCC)CC1", "obs-value": 6.87}
{"molecule": "COc1cc2nccc(Oc3ccc(Nc4c(NCC(C)C)c(=O)c4=O)c(Cl)c3)c2cc1C(N)=O", "obs-value": "6.00 to 6.70"}
{"molecule": "CN(C(=O)Nc1ccc(Oc2ccnc(-c3nnco3)c2)cc1)c1ccc(Cl)c(C(F)(F)F)c1", "obs-value": "< 5.00"}
{"molecule": "O=C(Nc1ccc(Cl)c(C(=O)Nc2cnc(Nc3ccc(O)cc3)nc2)c1)c1cccc(C(F)(F)F)c1", "obs-value": 7.82}
{"molecule": "C=C(C)n1c(C)cc(C)c(C(=O)Nc2ccc(Oc3ccnc4cc(OC)c(OC)nc34)c(F)c2)c1=O", "obs-value": "≥ 7.00"}
{"molecule": "Cn1cc(-c2cc(Oc3cccc(NC(=O)Nc4ccc(C(F)(F)F)cc4Cl)c3)ncn2)cn1", "obs-value": "≥ 5.00"}
